Quick reference: viability, T/C of the listed items.
- Tested on: 883617-216-R-J1-PDC complex spheroids, growth, % test/control;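 further: exposure lasted 7 days after dosing on day 3 of spheroid growth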
- Measurement Protocol: Anticancer human tumor 883617-216-R-J1-PDC patient-derived bladder carcinoma cell line growth inhibition [AhR]
- Measurement Conditions: second compound 10 µM; first compound 1 µM; hits give low values
A number alone suffices; assume %.

// known answers, use as guide
{"Compound": "COc1cccc2c1C(=O)c1c(O)c3c(c(O)c1C2=O)CC(O)(C(=O)CO)CC3OC1CC(N)C(O)C(C)O1 (stereo not drawn) + Cc1ccccc1N=Nc1ccc(NC(=O)c2ccnn2C)c(C)c1", "viability, T/C [%]": 8.97}
{"Compound": "Nc1ccn(C2OC(CO)C(O)C2(F)F)c(=O)n1 (stereo not drawn) + Cc1ccccc1N=Nc1ccc(NC(=O)c2ccnn2C)c(C)c1", "viability, T/C [%]": 34.5}

For the next question, use this compound.
Quick note, viability, T/C for CC(C)c1c(-c2ccccc2)nc2c(C#N)c[nH]n2c1=O + CC(CO)NC(=O)c1cc(-c2ccc(Cl)cc2)nn(-c2cnn(C)c2)c1=O landed at 57.8
